system: senescent foreskin cells; experiment: survival of senescent foreskin cells treated with medium supernatant (secreted fluid) of compound-killed cells (Example 13, Tables 68, 69); format: cell-based, human; conditions: culture medium supernatant from dying senescent cells treated with compound at 30 μM, 90 μM or 270 μM; senescent foreskin cells

- compound: "Cc1nc(-c2nc(-c3ccc(OC(F)(F)F)cc3)no2)nn1Cc1cccc(N2CCC(S(C)(=O)=O)CC2)c1 [LX-3200]"
  Survival: 54.9
- compound: "C[N+](C)(C)CCO.C[N+](C)(C)CCO.[SH-].[SH-].[S]=[Mo]=[S] [LX-2601]"
  Survival: 67.3
- compound: "CCOC(=O)[C@@H](N)CCC(=O)N[C@@H](CSCc1ccccc1)C(=O)N[C@@H](C(=O)OCC)c1ccccc1 [LX-2602, Ezatiostat, reference compound]"
  Survival: 69.5
- compound: "CC1=C(C)C(=O)C(CCCCCCCCCC[P+](c2ccccc2)(c2ccccc2)c2ccccc2)=CC1=O.[Br-] [LX-1205]"
  Survival: 53.4
- compound: "CS(=O)(=O)c1ncc(Cl)c(C(=O)O)n1 [LX-917]"
  Survival: 42.5

----------
tested on: A549; assay: CellTiter-Glo cell viability of senescent A549 cancer cells (Example 12, Table 67); type: cell-based, human; conditions: doxorubicin-induced senescent A549 cancer cells, 90 μM test compound, CellTiter-Glo
Below, each of the compounds is paired with its reported Survival (%) value.

- compound: "Cc1nnc(NC(=O)c2nc(S(=O)(=O)Cc3ccc(F)cc3)ncc2Cl)s1 [LX-916]"
  Survival (%): "1.7%"
- compound: "CN(C)CCn1cc(-c2ccc(F)cc2)c(-n2cccc2)n1 [LX-913]"
  Survival (%): "1.9%"
- compound: "CN(Cc1cnc2nc(N)nc(N)c2n1)c1ccc(C(=O)N[C@@H](CCC(=O)O)C(=O)O)cc1 [LX-2901, Methotrexate, reference compound]"
  Survival (%): "37.2%"
- compound: "CS(=O)(=O)c1ncc(Cl)c(C(=O)O)n1 [LX-917]"
  Survival (%): "3.5%"
- compound: "C[Se](=O)O [LX-3105, Methylseleninic acid]"
  Survival (%): "39.6%"
- compound: "CN1CC[C@@H](Nc2cccc3c2cc(-c2noc(CNC(=O)c4cnn(C(C)(C)C)c4)n2)n3CC(F)(F)F)[C@@H](F)C1 [LX-915]"
  Survival (%): "6.8%"
- compound: "CN(C)CCn1cc(-c2ccc(F)cc2)c(-n2cccc2)n1 [LX-909]"
  Survival (%): "17.5%"

----------
tested on: senescent foreskin cells; assay: survival of senescent foreskin cells treated with medium supernatant (secreted fluid) of compound-killed cells (Example 13, Tables 68, 69); format: cell-based, human; conditions: culture medium supernatant from dying senescent cells treated with compound at 30 μM, 90 μM or 270 μM; senescent foreskin cells

- molecule: "CC(N)(Cc1ccc(O)cc1)C(=O)O (racemic) [LX-3206, Racemetyrosine, reference compound]"
  Survival: 51.9
- molecule: "S=C(N/N=C1\\CCCc2cccnc21)N1CCN(c2ccccn2)CC1"
  Survival: 52.7
- molecule: "CN1CC[C@@H](Nc2cccc3c2cc(-c2noc(CNC(=O)c4cnn(C(C)(C)C)c4)n2)n3CC(F)(F)F)[C@@H](F)C1"
  Survival: 53.1
- molecule: "O=C(NCCCCCCCCCC[P+](c1ccccc1)(c1ccccc1)c1ccccc1)c1nn(Cc2ccc(Cl)cc2Cl)c2ccccc12.[Br-]"
  Survival: 62.7
- molecule: "CN(Cc1cnc2nc(N)nc(N)c2n1)c1ccc(C(=O)N[C@@H](CCC(=O)O)C(=O)O)cc1 [LX-2901, Methotrexate, reference compound]"
  Survival: 97.5
- molecule: "C[Si](C)(Cc1ccc(F)cc1)CN1CCCCC1.Cl [LX-1407, Silperisone, reference compound]"
  Survival: 69.9
- molecule: "C[Se](=O)O"
  Survival: 69.1

FYI, the data here is from patent US20250108036A1.
